# Test system: P. falciparum (D6 Clone)
# Format: cell-based, Plasmodium falciparum
# condition: read-out: P. falciparum (D6 Clone) IC50; chloroquine-sensitive D6 clone
measuredQuantity: IC50 (µM)
Give bare numbers, in µM.

CCCCC[C@@H]1C[C@@H]2CC[C@@H]3C[C@H](C)NC(=N1)N32 (racemic) [17l, batzelladine K] on P. falciparum (D6 Clone) gives IC50 = 14.8
